- Test system: E. coli K-12 resistant wild type
- Format: cell-based, Escherichia coli
- recordedConditions: E. coli AG100 (w.t.); the OAK at ½ of its MIC (Table 17)
Here the recorded Antibiotic MIC in presence of the OAK, +½ MIC is given for each entry.
Please respond with the number in µg/mL and leave the unit unwritten.

- smilesEntry: "CC[C@H]1OC(=O)[C@H](C)[C@@H](O[C@H]2C[C@@](C)(OC)[C@@H](O)[C@H](C)O2)[C@H](C)[C@@H](O[C@@H]2O[C@H](C)C[C@H](N(C)C)[C@H]2O)[C@](C)(O)C[C@@H](C)C(=O)[C@H](C)[C@@H](O)[C@]1(C)O"
  reportedMeasurement: 16
- smilesEntry: "CCN1CCN(C(=O)N[C@@H](C(=O)N[C@@H]2C(=O)N3[C@@H]2SC(C)(C)[C@@H]3C(=O)O)c2ccccc2)C(=O)C1=O"
  reportedMeasurement: 0.5

Now for another entry.
// recorded Antibiotic MIC in presence of the OAK, +½ MIC for CC1(C)S[C@@H]2[C@H](NC(=O)Cc3ccccc3)C(=O)N2[C@H]1C(=O)O : 8
